// provenance: the Immune Epitope Database (IEDB)

tgt: HLA-B*07:02
test: IEDB peptide-MHC binding, purified MHC/competitive/fluorescence; bounds were set here for any values at or beyond the usual limits of such assays
conditionInfo: source organism: Sudan ebolavirus
readoutLabel: pIC50
Scale explanation: pIC50 corresponds to minus log10 of a concentration expressed in moles per litre.

Query string: Give its pIC50 value. Item: RPHTPQFLF
Result string: 5.84

* * *

tgt: HLA-A*03:01
test: IEDB peptide-MHC binding, purified MHC/competitive/radioactivity; filed as Kd, often an IC50 or EC50 that approximates it; bounds were set here for any values at or beyond the usual limits of such assays
conditionInfo: source organism: Mammarenavirus juninense
pKd: −log10 of the molar value.
readoutLabel: pKd

Query string: Which pKd is reported for this sequence? EKYGHLCKYH
Result string: ≤ 4.15
